- ASSAY TARGET: Cathepsin S (Homo sapiens, UniProt P25774)
- Sequence (P25774 whole entry): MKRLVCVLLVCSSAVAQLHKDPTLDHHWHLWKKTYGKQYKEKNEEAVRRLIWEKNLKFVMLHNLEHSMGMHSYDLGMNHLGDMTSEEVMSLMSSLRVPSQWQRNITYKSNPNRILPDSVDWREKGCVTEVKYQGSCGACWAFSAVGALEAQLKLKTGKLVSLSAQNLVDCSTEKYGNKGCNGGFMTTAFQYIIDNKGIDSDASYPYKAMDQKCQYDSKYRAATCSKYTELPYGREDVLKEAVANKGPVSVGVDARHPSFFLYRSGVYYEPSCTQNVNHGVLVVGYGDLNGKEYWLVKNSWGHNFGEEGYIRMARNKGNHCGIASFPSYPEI
- ASSAY: Inhibition of Cathepsin S in human Raji cells assessed as increase in Lip10 accumulation after 24 hrs by SDS-PAGE analysis
- Type: cell-based
MEASURE: EC50 (nM)

                                smiles_data  display_unit  endpoint_value
0  N#CC1(NC(=O)[C@H](CS(=O)(=O)N2CCN(c3ccccn3)CC2)NC(=O)Cc2cccs2)CC1            nM            1100
